# MEASUREMENT_NOTES: Human HepG2 cell viability assay in 384 well format
# Type: toxicity, cell-based
# Parameters: dose 125 nL, time 70.5 hour; concentration not given beside the values
# MEASUREMENT_CONDITIONS: HepG2 cells, read-out: Inhibition

MOLECULE: Cc1cnn(CC(C)NCc2ccc(OCc3cccnc3)cc2)c1 (stereo unspecified)
cytotoxicity at 70.5 h: 2.45%
//
MOLECULE: Cn1nccc1-c1cncc(C2CCCN(S(C)(=O)=O)C2)n1 (stereo unspecified)
cytotoxicity at 70.5 h: -7.56%
//
MOLECULE: CCOCCc1nc(Cc2ccccc2)n[nH]1
cytotoxicity at 70.5 h: -14.4%
//
MOLECULE: Cc1ccc(C(=O)Cc2c(Cl)nc3n(C)c(=O)n(C)c(=O)n23)cc1
cytotoxicity at 70.5 h: -9.41%
//
MOLECULE: Cn1ncc2c(=O)[nH]c(CN3CCCc4cc(F)ccc43)nc21
cytotoxicity at 70.5 h: -23.1%
//
MOLECULE: Cn1cc(CN2CCc3ncn(C)c3C2COCc2cccnc2)cn1 (stereo unspecified)
cytotoxicity at 70.5 h: -0.736%
//
MOLECULE: CN(C)CCN1CCC2(CCN(C(=O)c3ccncc3)CC2)C1=O
cytotoxicity at 70.5 h: -7.69%
//
MOLECULE: CCCn1[nH]cc/c1=N\C(=O)CN1CCc2cnc(C(C)C)nc2C1
cytotoxicity at 70.5 h: -3.5%
//
MOLECULE: Fc1ccc2c(C3=CCN(Cc4nnc(C5CCC5)o4)CC3)c[nH]c2c1
cytotoxicity at 70.5 h: 2.23%
//
MOLECULE: Cc1ccc(C(=O)N2CCCCC2c2[nH]ncc2S(C)(=O)=O)cn1 (stereo unspecified)
cytotoxicity at 70.5 h: -2.26%
//
MOLECULE: COc1ccc(CC(=O)N(C)c2cccnc2N(C)C)c(Cl)c1
cytotoxicity at 70.5 h: -1.15%

====

# MEASUREMENT_NOTES: Human HepG2 cell viability assay in 384 well format
# Type: toxicity, cell-based
# Set-up: dose 125 nL, time 70.5 hour; concentration not given beside the values
# MEASUREMENT_CONDITIONS: HepG2 cells, read-out: Inhibition
OUTCOME_MEASURE: cytotoxicity at 70.5 h (%)

COMPOUND: Cc1nnc(CN(C)CC(=O)NCCc2ccc(F)cc2)n1C
OUTCOME_MEASURE: cytotoxicity at 70.5 h
VALUE_REPORTED: -5.46
--
COMPOUND: O=C(C1CCCC1)N1CCO[C@H]2[C@H](OCC3CCOCC3)CC[C@@H]21
OUTCOME_MEASURE: cytotoxicity at 70.5 h
VALUE_REPORTED: -5.12
--
COMPOUND: c1cc(C2CCN(C3CCCCC3)C2)n[nH]1 (configuration not stated)
OUTCOME_MEASURE: cytotoxicity at 70.5 h
VALUE_REPORTED: 2
--
COMPOUND: Cc1ccc(C2(O)CCN(C(=O)c3ccc(S(N)(=O)=O)cc3)CC2)nc1
OUTCOME_MEASURE: cytotoxicity at 70.5 h
VALUE_REPORTED: -12.2
--
COMPOUND: Cc1cc(Nc2ccc(F)cn2)cc(C2CCCN2)n1 (configuration not stated)
OUTCOME_MEASURE: cytotoxicity at 70.5 h
VALUE_REPORTED: -7.05
--
COMPOUND: CCc1c(C)nc2n(c1=O)CC(C(=O)Nc1sccc1C(=O)OC)CS2 (configuration not stated)
OUTCOME_MEASURE: cytotoxicity at 70.5 h
VALUE_REPORTED: -6.34
--
COMPOUND: COc1ccc2c(c1)C(NCCc1ccccn1)CCCO2 (configuration not stated)
OUTCOME_MEASURE: cytotoxicity at 70.5 h
VALUE_REPORTED: 16.8
--
COMPOUND: CNC(=O)C1CCCN1c1nc(C)c2ccccc2n1 (configuration not stated)
OUTCOME_MEASURE: cytotoxicity at 70.5 h
VALUE_REPORTED: -16.3
--
COMPOUND: CNS(=O)(=O)c1cccc(C(C)NCc2ccco2)c1 (configuration not stated)
OUTCOME_MEASURE: cytotoxicity at 70.5 h
VALUE_REPORTED: -8.45
--
COMPOUND: CN1CCC(c2nnc(CN3CCOCC3)n2C)CC1
OUTCOME_MEASURE: cytotoxicity at 70.5 h
VALUE_REPORTED: -24.5
--
COMPOUND: CCc1nc(NCC2CCCN(C(=O)C3CC3)C2)c2cnn(C)c2n1 (configuration not stated)
OUTCOME_MEASURE: cytotoxicity at 70.5 h
VALUE_REPORTED: -16.2
--
COMPOUND: CN(C(=O)CCc1cccs1)C1CCCN(C2Cc3ccccc3C2)C1 (configuration not stated)
OUTCOME_MEASURE: cytotoxicity at 70.5 h
VALUE_REPORTED: -1.24
--
COMPOUND: N[C@H]1CN(C(=O)CCC(F)(F)F)C[C@@H]1c1ccccc1
OUTCOME_MEASURE: cytotoxicity at 70.5 h
VALUE_REPORTED: -5.15
--
COMPOUND: Cc1cc(C(=O)NCC(C)N2CCc3ccccc32)on1 (configuration not stated)
OUTCOME_MEASURE: cytotoxicity at 70.5 h
VALUE_REPORTED: 7.49
--
COMPOUND: CCN1C(=O)CCCC12CCCN(C(=O)c1ccoc1C)C2 (configuration not stated)
OUTCOME_MEASURE: cytotoxicity at 70.5 h
VALUE_REPORTED: -10.9
--
COMPOUND: Cc1nnc2n1CC(CNCc1nc(-c3cccs3)no1)CC2 (configuration not stated)
OUTCOME_MEASURE: cytotoxicity at 70.5 h
VALUE_REPORTED: 18.6
--
COMPOUND: O=C(CCc1cccnc1)N(Cc1ccsc1)CC1CCCO1 (configuration not stated)
OUTCOME_MEASURE: cytotoxicity at 70.5 h
VALUE_REPORTED: -6.73
--
COMPOUND: CC(=O)c1ccc(OCC(=O)NS(=O)(=O)c2ccc(C)s2)cc1
OUTCOME_MEASURE: cytotoxicity at 70.5 h
VALUE_REPORTED: -14
--
COMPOUND: CN(C)CCn1c2c(ccc1=O)CC(NC(=O)c1cnccn1)CC2 (configuration not stated)
OUTCOME_MEASURE: cytotoxicity at 70.5 h
VALUE_REPORTED: -10.4
--
COMPOUND: CCN1CCCC12CCN(C(=O)c1nccn1C)CC2
OUTCOME_MEASURE: cytotoxicity at 70.5 h
VALUE_REPORTED: -7.36
--
COMPOUND: Cc1nn(C)c(C)c1CCC(=O)N(C)Cc1ccc(C#N)cc1
OUTCOME_MEASURE: cytotoxicity at 70.5 h
VALUE_REPORTED: 1.66
--
COMPOUND: CCn1ncc(CN2CCC(O)(Cn3ccc4ncccc43)CC2)c1C
OUTCOME_MEASURE: cytotoxicity at 70.5 h
VALUE_REPORTED: -1.63
--
COMPOUND: CC(=O)N1CCO[C@@H]2CN(C(=O)NCc3ccccc3)CC[C@@H]2C1
OUTCOME_MEASURE: cytotoxicity at 70.5 h
VALUE_REPORTED: 9.54
--
COMPOUND: Cc1nc(CN2CCCC(CCc3ccc(F)c(F)c3)C2)c[nH]1 (configuration not stated)
OUTCOME_MEASURE: cytotoxicity at 70.5 h
VALUE_REPORTED: 19.5
--
COMPOUND: CN1CCN2CCN(Cc3ccccc3Cn3cccn3)CC2C1 (configuration not stated)
OUTCOME_MEASURE: cytotoxicity at 70.5 h
VALUE_REPORTED: -0.968
--
COMPOUND: O=C1CCC2(CCN(Cc3ccc(F)cc3)CC2)N1Cc1ccccc1
OUTCOME_MEASURE: cytotoxicity at 70.5 h
VALUE_REPORTED: -5.78
--
COMPOUND: CCn1nc(CC(C)C)cc1C(=O)NCc1c(C)cc(C)nc1OC
OUTCOME_MEASURE: cytotoxicity at 70.5 h
VALUE_REPORTED: 2.04
--
COMPOUND: OC1(CN2CCC(Cc3ncccn3)CC2)CCOCC1
OUTCOME_MEASURE: cytotoxicity at 70.5 h
VALUE_REPORTED: 13.1
--
COMPOUND: Cc1nn(-c2ncccn2)c2c1C(c1cnn(C)c1C)SCC(=O)N2 (configuration not stated)
OUTCOME_MEASURE: cytotoxicity at 70.5 h
VALUE_REPORTED: -22.5
--
COMPOUND: Cc1nc(C)c(C(=O)N2CCCC2(C)C(=O)NC2CCCC2)s1 (configuration not stated)
OUTCOME_MEASURE: cytotoxicity at 70.5 h
VALUE_REPORTED: -3.63
--
COMPOUND: CC(C)n1ccnc1C1CCCN(c2ccccn2)C1 (configuration not stated)
OUTCOME_MEASURE: cytotoxicity at 70.5 h
VALUE_REPORTED: -11.1
--
COMPOUND: CN(C)c1ccccc1CN1CCCC(N2CCCC2=O)C1 (configuration not stated)
OUTCOME_MEASURE: cytotoxicity at 70.5 h
VALUE_REPORTED: -8.7
--
COMPOUND: O=C(Cc1ccccc1)N1CCC2(CC(=O)N(c3ccsc3)C2)C1 (configuration not stated)
OUTCOME_MEASURE: cytotoxicity at 70.5 h
VALUE_REPORTED: -0.17
--
COMPOUND: CO[C@@H]1CC[C@H]2[C@H]1OCCN2Cc1ccccn1
OUTCOME_MEASURE: cytotoxicity at 70.5 h
VALUE_REPORTED: 18.3
--
COMPOUND: CCOc1ccc(Oc2cc(N)ccn2)cc1
OUTCOME_MEASURE: cytotoxicity at 70.5 h
VALUE_REPORTED: -4.03
--
COMPOUND: COCCN1CCC(c2nc3c([nH]2)CC(C)(C)CNC3=O)C1 (configuration not stated)
OUTCOME_MEASURE: cytotoxicity at 70.5 h
VALUE_REPORTED: 10.3
--
COMPOUND: COC(=O)[C@@H]1CN(C(=O)NC(C)C)CCN1S(=O)(=O)c1ccccc1
OUTCOME_MEASURE: cytotoxicity at 70.5 h
VALUE_REPORTED: -2.94
--
COMPOUND: Cn1ccc(CN2CCCC23CCN(Cc2nccn2C)CC3)n1
OUTCOME_MEASURE: cytotoxicity at 70.5 h
VALUE_REPORTED: -2.05
--
COMPOUND: COCC1CC2(CCN(Cc3ccco3)CC2)CN1C(C)C (configuration not stated)
OUTCOME_MEASURE: cytotoxicity at 70.5 h
VALUE_REPORTED: 6.8
--
COMPOUND: Cc1ncc(S(C)(=O)=O)c(N2CCCCCC2)n1
OUTCOME_MEASURE: cytotoxicity at 70.5 h
VALUE_REPORTED: 7.29
--
COMPOUND: Cc1ccc(-c2nnc(CCC(=O)N3CCCC3c3ccc[nH]3)o2)cc1 (configuration not stated)
OUTCOME_MEASURE: cytotoxicity at 70.5 h
VALUE_REPORTED: -2
--
COMPOUND: Cn1cnc(S(=O)(=O)NCC2CCN(C(=O)Oc3ccccc3)CC2)c1
OUTCOME_MEASURE: cytotoxicity at 70.5 h
VALUE_REPORTED: 0.307
--
COMPOUND: O=C(c1ccco1)N1CC[C@@H]2O[C@H](COCC3CCOCC3)CC[C@@H]21
OUTCOME_MEASURE: cytotoxicity at 70.5 h
VALUE_REPORTED: 4.34
--
COMPOUND: Cc1ccn(CCC(=O)N2CCCC2c2nnc(-c3scnc3C)o2)n1 (configuration not stated)
OUTCOME_MEASURE: cytotoxicity at 70.5 h
VALUE_REPORTED: 11.6
--
COMPOUND: Fc1ccc(CN2C[C@@H]3OCCN(CC4CCCO4)[C@@H]3C2)cc1 (some centres not stated)
OUTCOME_MEASURE: cytotoxicity at 70.5 h
VALUE_REPORTED: 11
--
COMPOUND: Cc1cc(N(Cc2ccccc2F)C2CC2)n2nc(C(F)(F)F)nc2n1
OUTCOME_MEASURE: cytotoxicity at 70.5 h
VALUE_REPORTED: -1.77
--
COMPOUND: O=C(Nc1ccccc1CCO)c1cccc(CN2CC[C@H](O)C2)c1
OUTCOME_MEASURE: cytotoxicity at 70.5 h
VALUE_REPORTED: -8.22
